In this section, each of the compounds is paired with its reported z-score.
assay-system: Luciferin 4-monooxygenase (Photinus pyralis) (UniProt P08659)
Sequence (P08659 whole entry, looked up): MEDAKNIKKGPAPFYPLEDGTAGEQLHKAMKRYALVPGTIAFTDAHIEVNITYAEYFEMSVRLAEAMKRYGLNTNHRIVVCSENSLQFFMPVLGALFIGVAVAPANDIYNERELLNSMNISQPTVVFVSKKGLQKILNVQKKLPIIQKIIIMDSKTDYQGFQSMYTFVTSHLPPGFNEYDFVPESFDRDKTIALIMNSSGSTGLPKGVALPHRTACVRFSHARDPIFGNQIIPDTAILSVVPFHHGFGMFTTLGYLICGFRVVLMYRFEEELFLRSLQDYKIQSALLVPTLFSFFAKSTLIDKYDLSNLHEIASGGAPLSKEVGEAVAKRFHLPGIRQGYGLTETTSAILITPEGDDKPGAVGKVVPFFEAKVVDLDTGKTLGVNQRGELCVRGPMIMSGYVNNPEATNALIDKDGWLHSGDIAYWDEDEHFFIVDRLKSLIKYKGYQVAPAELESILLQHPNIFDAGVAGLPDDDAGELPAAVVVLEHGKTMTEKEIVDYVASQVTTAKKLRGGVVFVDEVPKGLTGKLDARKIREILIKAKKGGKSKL
assay-text: firefly luciferase enzyme inhibitors, primary screen, biochemical, luminescence, purified enzyme, 2006 set (AID 1141);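 also: cell-free assay with purified firefly luciferase at 100 ng per well in PBS; test concentration not given here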
test-parameters: SteadyGlo luminescence, 30 min, higher = more signal, called active from +8 up or from −8 down
Lab note: jot the number down without any unit.

Consider the following illustrative entries.
In: API: value(readout=z-score, system=Luciferin 4-monooxygenase (Photinus pyralis) (UniProt P08659)) for record CCOC(=O)C1=C[C@@H](c2ccccc2)N(S(=O)(=O)c2ccc(C)cc2)[C@H]1c1ccccc1
Out: 1.94

In: Query z-score on Luciferin 4-monooxygenase (Photinus pyralis) (UniProt P08659) for COCCOC(=O)N1C(=O)[C@@]2(c3cc(C#CC4(O)CCCCCC4)ccc31)[C@H](C(=O)N1CCN(c3ncccn3)CC1)[C@H]1C(=O)O[C@H](c3ccccc3)[C@H](c3ccccc3)N1[C@@H]2c1ccccc1OCCO
Out: -0.348

In: Which z-score is reported with Luciferin 4-monooxygenase (Photinus pyralis) (UniProt P08659) for this entry: COCCOC(=O)N1C(=O)[C@@]2(c3cc(C#CCC(C(=O)OC)C(=O)OC)ccc31)[C@H](C(=O)NC[C@H](O)c1ccccc1)[C@H]1C(=O)O[C@H](c3ccccc3)[C@H](c3ccccc3)N1[C@@H]2c1ccc(O)cc1 ?
Out: -0.296

Further cases:
In: For the record O=C1C2C=CC(C(O)c3ccc4c(c3)OCO4)N(Nc3ccccc3)C2C(=O)N1c1ccccc1 (configuration not stated) , what value of z-score is listed for Luciferin 4-monooxygenase (Photinus pyralis) (UniProt P08659)?
Out: 0.465

Measured values drawn from PubChem BioAssay for this set.
